The values you see were collected from the supplement of paper PMC12042874.

Assay: amyloid nucleation score (Sup35N fusion, yeast selection) (log enrichment); library NNK2; higher = more nucleation; inactive = no reads after selection;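 further: zero at mode of non-aggregating sequences after 7 days selection at 30°C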
Classify by measured amyloid nucleation score: label 1 if it is equal to or exceeds 0.2, label 0 if it is smaller.

- Substance: "MQIKFKS"
  Class assignment: "label 0"
- Substance: "LFPSLMAVNVQRSDTGPSHG"
  Class assignment: "label 1"
- Substance: "IYSHESASWWMRRARSS"
  Class assignment: "label 1"
- Substance: "IDLLFDFTDLMWLIYPVFLL"
  Class assignment: "label 0"
- Substance: "LCCVVEN"
  Class assignment: "label 0"

Input line: Determine whether this substance has amyloid nucleation score no lower than 0.2: QFAYTRSSPVKIYLYNNYGA
Output line: label 1

Input line: Could you verify whether the entry PAFVYHFYQYNLTICYGYLG shows amyloid nucleation score of no less than 0.2?
Output line: label 0

----------
Assay: amyloid nucleation score (Sup35N fusion, yeast selection) (log enrichment); library NNK2; higher = more nucleation; inactive = no reads after selection
Readout label: amyloid nucleation score

Solved cases (6 shown):
- Substance: "ESGCRHYLCLGATTIVMDS"
  Readout label: "amyloid nucleation score"
  Result value: 6.62
- Substance: "PMSDMFYFFGFECSRLIMSN"
  Readout label: "amyloid nucleation score"
  Result value: "inactive"
- Substance: "LVTLRKMDPSPRRVIFNVCN"
  Readout label: "amyloid nucleation score"
  Result value: 0.935
- Substance: "AKHERSIMVDVMSGRCSTLS"
  Readout label: "amyloid nucleation score"
  Result value: 1.07
- Substance: "DSCGLCRYGGEMFRKFKFIS"
  Readout label: "amyloid nucleation score"
  Result value: "inactive"
- Substance: "TMKHLFRDGRSIRLLTCWVS"
  Readout label: "amyloid nucleation score"
  Result value: -0.931

// moving on: another record for amyloid nucleation score
Input line: Return reported amyloid nucleation score; argument: FMDIHRKMGTHVFLRKCFRI
Output line: -0.771

----------
amyloid nucleation score values for the substances below.
Experiment: amyloid nucleation score (Sup35N fusion, yeast selection) (log enrichment); library NNK2; higher = more nucleation; inactive = no reads after selection
Answer as a number with no unit attached.

Input line: Field request: amyloid nucleation score | item: IMTMTGNVDNIAVIRRS
Output line: -0.519

----------
Assay: amyloid nucleation score (Sup35N fusion, yeast selection) (log enrichment); library NNK3; higher = more nucleation; inactive = no reads after selection
Readout label: amyloid nucleation score

Sample answers from the record:
- Substance: "IKDIFACSMCFTTKSNAAHY"
  amyloid nucleation score: 3
- Substance: "FLRCIC"
  amyloid nucleation score: "inactive"
- Substance: "TSVDGLCSFMDLRL"
  amyloid nucleation score: "inactive"
- Substance: "KWVCYHSWDYTCYHGEWYPS"
  amyloid nucleation score: "inactive"
- Substance: "AYEIQWIWPNAASTVKSVLA"
  amyloid nucleation score: "inactive"

Consider the record given below.
Input line: Look at this substance and give its reported amyloid nucleation score. EFPASNLSMLGWN
Output line: inactive

----------
Test: amyloid nucleation score (Sup35N fusion, yeast selection) (log enrichment); library NNK3; higher = more nucleation; inactive = no reads after selection
Readout label: amyloid nucleation score

Use the examples below as a reference point.
- Sequence input: "DCYKRSVMLKAARSWVNRSL"
  amyloid nucleation score: "inactive"
- Sequence input: "FRVLYDCGTGYAVCYAMEVK"
  amyloid nucleation score: "inactive"
- Sequence input: "KLMEICYRVRIRRMECQVNW"
  amyloid nucleation score: 0.753
- Sequence input: "WTLFWNPLI"
  amyloid nucleation score: "inactive"
- Sequence input: "VCTLGFFSKMGRGPRYYS"
  amyloid nucleation score: "inactive"

Input line: Please report the recorded amyloid nucleation score for FRYVHIHLRYQPGF .
Output line: inactive

Input line: # amyloid nucleation score lookup, item LDILVRETDQSLWDFQLSSV
Output line: 0.499

Input line: What value of amyloid nucleation score has been recorded for this entry: SYYISMVYTVMSMNASFSRS
Output line: inactive

Input line: amyloid nucleation score for KDLCPFARPASRLHRVACME ?
Output line: inactive

----------
Assay: amyloid nucleation score (Sup35N fusion, yeast selection) (log enrichment); library NNK2; higher = more nucleation; inactive = no reads after selection
Readout label: amyloid nucleation score
Give a plain numeric answer without units written out.

Some substances with known amyloid nucleation score results, for comparison:
- Substance: "ESLKINASSEQSRLVTRDTQ"
  amyloid nucleation score: -0.191
- Substance: "LAWITKSMFLL"
  amyloid nucleation score: 0.672
- Substance: "GRVRKSHTVGSACNILYSCA"
  amyloid nucleation score: 1.32
- Substance: "SVLAGDLNLRLVFYCMFMYH"
  amyloid nucleation score: 1.61
- Substance: "SDFIAGVKLSRNFDGRG"
  amyloid nucleation score: -0.097

Input line: What value of amyloid nucleation score has been reported for the following substance? VDFLLYLVSSTFGRARKWVY
Output line: -0.425

Input line: Query: amyloid nucleation score; subject: QSRDKYLKFRPSLWATEMTW
Output line: -0.127

Input line: Entry QASSGSKDLD has what amyloid nucleation score?
Output line: 0.102

Input line: // returns reported amyloid nucleation score for input ICRGPQSSNCMEAFVQHFTK
Output line: 0.417

Input line: GET /values?readout=amyloid nucleation score&item= IVLTLDLSRRVGMRNCVLLG
Output line: -0.063

----------
Experiment: amyloid nucleation score (Sup35N fusion, yeast selection) (log enrichment); library NNK1; higher = more nucleation; inactive = no reads after selection
Listed next: entries and their corresponding amyloid nucleation score.
Please give the numeric answer without any surrounding text.

- Substance: "NKYNSYKKNYPKRIDWSGLN"
  Readout label: "amyloid nucleation score"
  Result value: -0.983

Input line: So what's the measured amyloid nucleation score for this one? VCMTTLCWISSGVGFLHWSS
Output line: 3.98

Input line: Would you mind telling me what amyloid nucleation score value was observed for MCINIKKNMFR ?
Output line: 4.74

Input line: For the substance RLIENFGPHYRSSPVFDVVV , what amyloid nucleation score is on record?
Output line: 1.33

Input line: Given the substance MVTEDEERMANLSWHESGAY , what is its reported amyloid nucleation score?
Output line: -1.07

----------
Assay: amyloid nucleation score (Sup35N fusion, yeast selection) (log enrichment); library NNK3; higher = more nucleation; inactive = no reads after selection
Readout label: amyloid nucleation score

In the examples that follow, each entry is paired with its recorded amyloid nucleation score.
- Substance: "CGRRYGTGAPRCL"
  amyloid nucleation score: "inactive"
- Substance: "SFRSGLLSGRKWGHPVSSQE"
  amyloid nucleation score: "inactive"
- Substance: "TGHMTDIYYELSHGVEPKGL"
  amyloid nucleation score: "inactive"
- Substance: "SLAYCLLEWMES"
  amyloid nucleation score: -0.172
- Substance: "QEYSGHATSGAHMRWAYSVE"
  amyloid nucleation score: "inactive"
- Substance: "VYKDHAIVLCWVVK"
  amyloid nucleation score: -0.437

Input line: // lookup amyloid nucleation score for YMSSYRKEDCGQWLDEWPMA
Output line: inactive

Input line: May I ask what amyloid nucleation score has been recorded for NSVHREECFLITF ?
Output line: inactive

Input line: Which amyloid nucleation score is reported for this substance? FRILIIFSVYGSMISHLP
Output line: inactive

Input line: Endpoint output: amyloid nucleation score of VITMGMSLSSVSGLRDYLQE . Value?
Output line: 1.36

Input line: Please give the measured amyloid nucleation score for this substance: YTDIVSAIEEVF
Output line: inactive

Input line: What value of amyloid nucleation score has been recorded for this entry: DGVALFNVVRFVVGIDILLI
Output line: inactive

Input line: amyloid nucleation score for VMSFVFNTSLWSMYIRIGSP ?
Output line: inactive

----------
Experiment: amyloid nucleation score (Sup35N fusion, yeast selection) (log enrichment); library NNK3; higher = more nucleation; inactive = no reads after selection
Readout label: amyloid nucleation score

- Sequence input: "LYILGQIFR"
  Readout label: "amyloid nucleation score"
  Result value: "inactive"
- Sequence input: "RSEVAGFHLE"
  Readout label: "amyloid nucleation score"
  Result value: -0.807
- Sequence input: "DIIYTFHHAVNRLNKIFSV"
  Readout label: "amyloid nucleation score"
  Result value: "inactive"
- Sequence input: "FSLVMDCI"
  Readout label: "amyloid nucleation score"
  Result value: "inactive"
- Sequence input: "CLLVRTIMRVLYFWMES"
  Readout label: "amyloid nucleation score"
  Result value: "inactive"

Input line: Which amyloid nucleation score is reported for this sequence? QSDHTLPMCRSSLRICVSGR
Output line: 1.75

Input line: Param item = HILVKITR ; retrieve measured amyloid nucleation score.
Output line: 0.359

Input line: Data request, read-out amyloid nucleation score, for DSQLFKICGLVCTTYVALCF
Output line: -0.732

Input line: Recorded amyloid nucleation score of CQVWFTYYYLLGSTNDSMAR , please.
Output line: inactive

Input line: Given the entry GSISMFNKG , report its measured amyloid nucleation score.
Output line: inactive

Input line: For the sequence CEFTAPVICLISLCYVGRSR , what amyloid nucleation score is on record?
Output line: 1.09
